Biological target: Alpha-2A adrenergic receptor (Homo sapiens)
Sequence (P08913 whole entry): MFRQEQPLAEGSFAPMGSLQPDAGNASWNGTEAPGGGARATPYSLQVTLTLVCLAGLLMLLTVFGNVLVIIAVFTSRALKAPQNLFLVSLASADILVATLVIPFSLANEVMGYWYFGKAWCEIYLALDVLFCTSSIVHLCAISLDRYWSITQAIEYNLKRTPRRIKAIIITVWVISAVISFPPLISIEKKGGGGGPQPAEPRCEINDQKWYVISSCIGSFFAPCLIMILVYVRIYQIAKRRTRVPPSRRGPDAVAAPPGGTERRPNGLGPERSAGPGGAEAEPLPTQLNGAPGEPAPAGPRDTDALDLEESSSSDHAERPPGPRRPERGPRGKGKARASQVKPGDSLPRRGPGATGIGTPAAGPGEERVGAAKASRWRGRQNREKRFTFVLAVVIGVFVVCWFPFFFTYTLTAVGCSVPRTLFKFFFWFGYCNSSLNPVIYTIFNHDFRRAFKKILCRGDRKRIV
Type: cell membranes, Sf9, Membrane
Details: read-out: Ki
Ki listing for selected compounds.
Write the answer as a number in nM, unit excluded.

Please review the entries below; each comes with its answer.
>>> print(df.to_string())
                                   compound  measurement_type  test_result
0  c1ccc2sc(SSc3nc4ccccc4s3)nc2c1 [BENZOTHIAZYL DISULFIDE]                Ki          337
1  CC[C@H](C)[C@@H](CO[C@@H](Cc1ccccc1)C(=O)N[C@@H](CCS(C)(=O)=O)C(=O)OC(C)C)NC[C@@H](N)CS                Ki          162
2  CCN(CC)CCNC(=O)c1cc(Cl)c(N)cc1OC [METOCLOPRAMIDE]                Ki         1020
3     Clc1cc(Cl)c(OCC#CI)cc1Cl [HALOPROGIN]                Ki          458

# next compound below
Quick one: Ki of CCOc1cc(N)c(Cl)cc1C(=O)NCC1CN(Cc2ccc(F)cc2)CCO1 (stereo not given) [MOSAPRIDE] ?
1380
